Reported k el by item:
# PROTOCOL TEXT: Elimination rate constant in ICR mouse at 10 mg/kg, po by LC-MS/MS analysis
# Assay type: ADME, organism-based
# CONDITION SUMMARY: in vivo
PROPERTY LABEL: k el

INSERT INTO results (sample_smiles, val) VALUES
  ('CC(=O)N1CCN2c3cc4c(N[C@H](C)c5cccc(C(F)F)c5F)nc(C)nc4cc3OC[C@H]2C1', '0.000103 s⁻¹'),
  ('COc1cc2nc(C)nc(N[C@H](C)c3cc(N)cc(C(F)(F)F)c3)c2cc1O[C@H]1CCOC1', '0.000147 s⁻¹'),
  ('CC(=O)N1CCN2c3cc4c(N[C@H](C)c5cc(N)cc(C(F)(F)F)c5)nc(C)nc4cc3OC[C@H]2C1', '0.000142 s⁻¹'),
  ('CC(=O)N1CCN2c3cc4c(N[C@H](C)c5cccc(C(F)(F)C(C)(C)O)c5F)nc(C)nc4cc3OC[C@H]2C1', '3.89e-05 s⁻¹');
